The reported numbers originate from PubChem BioAssay AID2060484.

Test system: SUM149PT spheroids with HUVEC/MSC, viability
Test method notes: Anticancer human tumor SUM149PT cell line growth inhibition [GQUAD]
Cond: second compound 0.1 µM; first compound 0.0316 µM; active compounds read low
Hi! Could you tag entries with viability, T/C below 50% as T, and those at or above as F? Much appreciated.

Some entries whose results are on file:
Compound	Answer label
COc1cccc2c1C(=O)c1c(O)c3c(c(O)c1C2=O)CC(O)(C(=O)CO)CC3OC1CC(N)C(O)C(C)O1 (stereo not given) + CN(C)c1ccc(Nc2c3ccc(NC(=O)CCN4CCCC4)cc3nc3cc(NC(=O)CCN4CCCC4)ccc23)cc1	F
CC1COCCN1c1cc(-c2ccnn2C)c2ccnc(-c3ccn[nH]3)c2n1 (stereo not given) + Cc1cnc(CNC(=O)c2c(=O)c3ccc(N4CCCN(C)CC4)nc3n3c2sc2ccccc23)cn1	T
CC1COCCN1c1cc(C2(O)CC3CCC(C2)O3)c2cnn(-c3ccn[nH]3)c2n1 (stereo not given) + Cc1[nH]c2ccc(F)cc2c1-c1nc2c3cccnc3c3ncccc3c2[nH]1	F

Now for another entry.
Q: Find out if reported viability, T/C for O=C(c1cc(Cc2n[nH]c(=O)c3ccccc23)ccc1F)N1CCN(C(=O)C2CC2)CC1 + CN(C)c1ccc(Nc2c3ccc(NC(=O)CCN4CCCC4)cc3nc3cc(NC(=O)CCN4CCCC4)ccc23)cc1 is less than 50%
Result: F

---

Tested on: SUM149PT spheroids with HUVEC/MSC, viability
Test method notes: Anticancer human tumor SUM149PT cell line growth inhibition [GQUAD]
Cond: second compound 0.1 µM; first compound 1 µM; active compounds read low
Hi! Could you tag entries with viability, T/C below 40% as criterion met, and those at or above as criterion not met? Much appreciated.

Some entries whose results are on file:
Compound	Answer label
C=CCn1c(=O)c2cnc(Nc3ccc(N4CCN(C)CC4)cc3)nc2n1-c1cccc(C(C)(C)O)n1 + CN(C)c1ccc(Nc2c3ccc(NC(=O)CCN4CCCC4)cc3nc3cc(NC(=O)CCN4CCCC4)ccc23)cc1	criterion met
COc1cccc2c1C(=O)c1c(O)c3c(c(O)c1C2=O)CC(O)(C(=O)CO)CC3OC1CC(N)C(O)C(C)O1 (stereo not given) + CN(C)c1ccc(Nc2c3ccc(NC(=O)CCN4CCCC4)cc3nc3cc(NC(=O)CCN4CCCC4)ccc23)cc1	criterion met
O=C(c1cc(Cc2n[nH]c(=O)c3ccccc23)ccc1F)N1CCN(C(=O)C2CC2)CC1 + CN(C)c1ccc(Nc2c3ccc(NC(=O)CCN4CCCC4)cc3nc3cc(NC(=O)CCN4CCCC4)ccc23)cc1	criterion not met
CCCS(=O)(=O)Nc1ccc(F)c(C(=O)c2c[nH]c3ncc(-c4ccc(Cl)cc4)cc23)c1F + Cc1[nH]c2ccc(F)cc2c1-c1nc2c3cccnc3c3ncccc3c2[nH]1	criterion not met
Cc1cccc(N(C)C(=O)C2C(O)CCN2c2nc(C)cc(C(F)(F)F)c2C#N)c1 (stereo not given) + CN(C)c1ccc(Nc2c3ccc(NC(=O)CCN4CCCC4)cc3nc3cc(NC(=O)CCN4CCCC4)ccc23)cc1	criterion not met
CCCS(=O)(=O)Nc1ccc(F)c(C(=O)c2c[nH]c3ncc(-c4ccc(Cl)cc4)cc23)c1F + CN(C)c1ccc(Nc2c3ccc(NC(=O)CCN4CCCC4)cc3nc3cc(NC(=O)CCN4CCCC4)ccc23)cc1	criterion not met
C=CC(=O)N1CCN(c2nc(=O)n(-c3c(C)ccnc3C(C)C)c3nc(-c4c(O)cccc4F)c(F)cc23)C(C)C1 (stereo not given) + CN(C)c1ccc(Nc2c3ccc(NC(=O)CCN4CCCC4)cc3nc3cc(NC(=O)CCN4CCCC4)ccc23)cc1	criterion not met
C=CCn1c(=O)c2cnc(Nc3ccc(N4CCN(C)CC4)cc3)nc2n1-c1cccc(C(C)(C)O)n1 + Cc1[nH]c2ccc(F)cc2c1-c1nc2c3cccnc3c3ncccc3c2[nH]1	criterion met

Q: Find out if reported viability, T/C for C=CC(=O)N1CCN(c2nc(=O)n(-c3c(C)ccnc3C(C)C)c3nc(-c4c(O)cccc4F)c(F)cc23)C(C)C1 (stereo not given) + Cc1cnc(CNC(=O)c2c(=O)c3ccc(N4CCCN(C)CC4)nc3n3c2sc2ccccc23)cn1 is less than 40%
Result: criterion not met

Q: Find out if reported viability, T/C for COc1cc(C2c3cc4c(cc3C(OC3OC5COC(C)OC5C(O)C3O)C3COC(=O)C23)OCO4)cc(OC)c1O (stereo not given) + Cc1cnc(CNC(=O)c2c(=O)c3ccc(N4CCCN(C)CC4)nc3n3c2sc2ccccc23)cn1 is less than 40%
Result: criterion not met

---

Test system: SUM149PT spheroids with HUVEC/MSC, viability
Test method notes: Anticancer human tumor SUM149PT cell line growth inhibition [GQUAD];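 further: spheroids exposed to drugs for seven days before readout; percent viability relative to DMSO vehicle control taken as 100%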
Cond: second compound 3.16 µM; first compound 1 µM; active compounds read low
Reported viability, T/C values are given for each entry in this list.
Value expressed in %; do not type the unit.

Sample records with viability, T/C:
Compound	Study target	Value units	viability, T/C
CC1COCCN1c1cc(-c2ccnn2C)c2ccnc(-c3ccn[nH]3)c2n1 (stereo not drawn) + CN(C)c1ccc(Nc2c3ccc(NC(=O)CCN4CCCC4)cc3nc3cc(NC(=O)CCN4CCCC4)ccc23)cc1	SUM149PT spheroids with HUVEC/MSC, viability	%	23.5
CC1COCCN1c1cc(-c2ccnn2C)c2ccnc(-c3ccn[nH]3)c2n1 (stereo not drawn) + Cc1[nH]c2ccc(F)cc2c1-c1nc2c3cccnc3c3ncccc3c2[nH]1	SUM149PT spheroids with HUVEC/MSC, viability	%	26.2

Switching to the query record.
Q: Write down viability, T/C measured for item O=c1[nH]cc(F)c(=O)[nH]1 + CN(C)c1ccc(Nc2c3ccc(NC(=O)CCN4CCCC4)cc3nc3cc(NC(=O)CCN4CCCC4)ccc23)cc1
Result: 92.5

---

System: SUM149PT spheroids with HUVEC/MSC, viability
Test method notes: Anticancer human tumor SUM149PT cell line growth inhibition [GQUAD];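 further: spheroids exposed to drugs for seven days before readout; percent viability relative to DMSO vehicle control taken as 100%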
Cond: second compound 0.0316 µM; first compound 10 µM; active compounds read low
Result type: viability, T/C

Compound	Observed result
CC(=O)O[C@H]1C(=O)[C@@]2(C)[C@H]([C@H](OC(=O)c3ccccc3)[C@]3(O)C[C@H](OC(=O)[C@H](O)[C@@H](NC(=O)c4ccccc4)c4ccccc4)C(C)=C1C3(C)C)[C@]1(OC(C)=O)CO[C@@H]1C[C@@H]2O + CN(C)c1ccc(Nc2c3ccc(NC(=O)CCN4CCCC4)cc3nc3cc(NC(=O)CCN4CCCC4)ccc23)cc1	23.6%

Q: Write down viability, T/C measured for item O=c1[nH]cc(F)c(=O)[nH]1 + Cc1[nH]c2ccc(F)cc2c1-c1nc2c3cccnc3c3ncccc3c2[nH]1
Result: 47.5%

---

Tested on: SUM149PT spheroids with HUVEC/MSC, viability
Test method notes: Anticancer human tumor SUM149PT cell line growth inhibition [GQUAD];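 further: spheroids exposed to drugs for seven days before readout; percent viability relative to DMSO vehicle control taken as 100%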
Cond: second compound 0.1 µM; first compound 1 µM; active compounds read low
Hi! Could you tag entries with viability, T/C below 70% as label 1, and those at or above as label 0? Much appreciated.

Some entries whose results are on file:
Molecule	Answer label
C#Cc1c(F)ccc2cc(O)cc(-c3ncc4c(N5CC6CCC(C5)N6)nc(OCC56CCCN5CC(F)C6)nc4c3F)c12 (stereo unspecified) + Cc1[nH]c2ccc(F)cc2c1-c1nc2c3cccnc3c3ncccc3c2[nH]1	label 0
CC(C)(O)C1CCC(Nc2ccc3ncc(-c4cccc(C(F)(F)F)c4)n3n2)CC1 (stereo unspecified) + CN(C)c1ccc(Nc2c3ccc(NC(=O)CCN4CCCC4)cc3nc3cc(NC(=O)CCN4CCCC4)ccc23)cc1	label 1
Nc1ccn(C2OC(CO)C(O)C2(F)F)c(=O)n1 (stereo unspecified) + Cc1cnc(CNC(=O)c2c(=O)c3ccc(N4CCCN(C)CC4)nc3n3c2sc2ccccc23)cn1	label 1
Nc1ccn(C2OC(CO)C(O)C2(F)F)c(=O)n1 (stereo unspecified) + Cc1[nH]c2ccc(F)cc2c1-c1nc2c3cccnc3c3ncccc3c2[nH]1	label 1
O=c1[nH]cc(F)c(=O)[nH]1 + Cc1cnc(CNC(=O)c2c(=O)c3ccc(N4CCCN(C)CC4)nc3n3c2sc2ccccc23)cn1	label 1

Now for another entry.
Q: Find out if reported viability, T/C for COc1ncnc(C2CC2)c1-c1ncc2cnn(Cc3ccc(-c4nc(C(F)(F)F)cn4C(C)C)cc3)c2n1 + Cc1[nH]c2ccc(F)cc2c1-c1nc2c3cccnc3c3ncccc3c2[nH]1 is less than 70%
Result: label 0

---

System: SUM149PT spheroids with HUVEC/MSC, viability
Test method notes: Anticancer human tumor SUM149PT cell line growth inhibition [GQUAD];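 further: spheroids exposed to drugs for seven days before readout; percent viability relative to DMSO vehicle control taken as 100%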
Cond: second compound 1 µM; first compound 0.00316 µM; active compounds read low
Result type: viability, T/C (%)
Value expressed in %; do not type the unit.

Sample records with viability, T/C:
Molecule	viability, T/C (%)
CCc1c2c(nc3ccc(O)cc13)-c1cc3c(c(=O)n1C2)COC(=O)[C@]3(O)CC + CN(C)c1ccc(Nc2c3ccc(NC(=O)CCN4CCCC4)cc3nc3cc(NC(=O)CCN4CCCC4)ccc23)cc1	42.2
CCc1c2c(nc3ccc(O)cc13)-c1cc3c(c(=O)n1C2)COC(=O)[C@]3(O)CC + Cc1[nH]c2ccc(F)cc2c1-c1nc2c3cccnc3c3ncccc3c2[nH]1	35.5

Switching to the query record.
Q: Write down viability, T/C measured for item CC[C@@]1(O)C(=O)OCc2c1cc1n(c2=O)Cc2cc3c(CN(C)C)c(O)ccc3nc2-1 + Cc1[nH]c2ccc(F)cc2c1-c1nc2c3cccnc3c3ncccc3c2[nH]1
Result: 99.8
